meta.source: ChEMBL document CHEMBL3244247

Tested on: Felis catus
Test: In vivo inhibition of beta-1 adrenergic receptor in cat assessed as inhibition of isoproterenol-induced tachycardia administered as 30 mins of infusion measured at 30 mins by cardiotachometer
Type: functional
Details: 0.5 h
Lab note: compare ED50 with 0.07 mg/kg, writing met if less and not met if equal or more.

>  <COMPOUND>
C=CCNC(=O)Nc1ccc(OCC(O)CNC(C)C)cc1 (configuration not stated)

>  <MEASURED TARGET>
Felis catus

>  <CLASS ASSIGNMENT>
not met

$$$$
>  <COMPOUND>
CC(C)(C)NCC(O)COc1ccc(NC(=O)Nc2ccc(Cl)cc2)cc1 (configuration not stated)

>  <MEASURED TARGET>
Felis catus

>  <CLASS ASSIGNMENT>
not met

$$$$
>  <COMPOUND>
CCNC(=O)Nc1ccc(OCC(O)CNC(C)(C)C)c(CC)c1 (configuration not stated)

>  <MEASURED TARGET>
Felis catus

>  <CLASS ASSIGNMENT>
not met

$$$$
>  <COMPOUND>
CCCCNC(=O)Nc1ccc(OCC(O)CNC(C)(C)C)c(C)c1 (configuration not stated)

>  <MEASURED TARGET>
Felis catus

>  <CLASS ASSIGNMENT>
met

$$$$
>  <COMPOUND>
CCCNC(=O)Nc1ccc(OCC(O)CNC(C)(C)C)cc1 (configuration not stated)

>  <MEASURED TARGET>
Felis catus

>  <CLASS ASSIGNMENT>
met

$$$$
>  <COMPOUND>
CCCNC(=O)Nc1ccc(OCC(O)CNC(C)C)c(I)c1 (configuration not stated)

>  <MEASURED TARGET>
Felis catus

>  <CLASS ASSIGNMENT>
not met

$$$$
>  <COMPOUND>
CCCNC(=O)Nc1ccc(OCC(O)CNC(C)(C)C)c(C)c1 (configuration not stated)

>  <MEASURED TARGET>
Felis catus

>  <CLASS ASSIGNMENT>
met

$$$$
>  <COMPOUND>
CC(C)NCC(O)COc1ccc(NC(N)=O)cc1 (configuration not stated)

>  <MEASURED TARGET>
Felis catus

>  <CLASS ASSIGNMENT>
not met

$$$$
>  <COMPOUND>
CNC(=O)Nc1ccc(OCC(O)CNC(C)(C)C)cc1 (configuration not stated)

>  <MEASURED TARGET>
Felis catus

>  <CLASS ASSIGNMENT>
not met

$$$$
>  <COMPOUND>
CCNC(=O)Nc1ccc(OCC(O)CNC(C)C)c(CC)c1 (configuration not stated)

>  <MEASURED TARGET>
Felis catus

>  <CLASS ASSIGNMENT>
not met

$$$$
>  <COMPOUND>
CNC(=O)Nc1ccc(OCC(O)CNC(C)C)c(Br)c1 (configuration not stated)

>  <MEASURED TARGET>
Felis catus

>  <CLASS ASSIGNMENT>
met

$$$$
>  <COMPOUND>
C=CCc1cc(NC(=O)NC)ccc1OCC(O)CNC(C)(C)C (configuration not stated)

>  <MEASURED TARGET>
Felis catus

>  <CLASS ASSIGNMENT>
met

$$$$
>  <COMPOUND>
CC(C)NC(=O)Nc1ccc(OCC(O)CNC(C)(C)C)cc1 (configuration not stated)

>  <MEASURED TARGET>
Felis catus

>  <CLASS ASSIGNMENT>
not met

$$$$
>  <COMPOUND>
CCNC(=O)Nc1ccccc1OCC(O)CNC(C)C (configuration not stated)

>  <MEASURED TARGET>
Felis catus

>  <CLASS ASSIGNMENT>
not met

$$$$
>  <COMPOUND>
CCCCCCNC(=O)Nc1ccc(OCC(O)CNC(C)C)cc1 (configuration not stated)

>  <MEASURED TARGET>
Felis catus

>  <CLASS ASSIGNMENT>
not met

$$$$
>  <COMPOUND>
CC(C)NCC(O)COc1cccc2ccccc12 (configuration not stated) [PROPRANOLOL]

>  <MEASURED TARGET>
Felis catus

>  <CLASS ASSIGNMENT>
met

$$$$
>  <COMPOUND>
C=CCNC(=O)Nc1ccc(OCC(O)CNC(C)(C)C)cc1 (configuration not stated)

>  <MEASURED TARGET>
Felis catus

>  <CLASS ASSIGNMENT>
not met

$$$$
>  <COMPOUND>
CCNC(=O)Nc1ccc(OCC(O)CNC(C)(C)C)cc1 (configuration not stated)

>  <MEASURED TARGET>
Felis catus

>  <CLASS ASSIGNMENT>
not met

$$$$
>  <COMPOUND>
C=CCNC(=O)Nc1ccc(OCC(O)CNC(C)(C)C)c(Cl)c1 (configuration not stated)

>  <MEASURED TARGET>
Felis catus

>  <CLASS ASSIGNMENT>
met

$$$$
>  <COMPOUND>
CCNC(=O)Nc1ccc(OCC(O)CNC(C)C)c(O)c1 (configuration not stated)

>  <MEASURED TARGET>
Felis catus

>  <CLASS ASSIGNMENT>
not met

$$$$
>  <COMPOUND>
CCCCCCNC(=O)Nc1ccc(OCC(O)CNC(C)(C)C)cc1 (configuration not stated)

>  <MEASURED TARGET>
Felis catus

>  <CLASS ASSIGNMENT>
not met

$$$$
>  <COMPOUND>
C=CCNC(=O)Nc1ccc(OCC(O)CNC(C)C)c(C)c1 (configuration not stated)

>  <MEASURED TARGET>
Felis catus

>  <CLASS ASSIGNMENT>
not met

$$$$
>  <COMPOUND>
CCNC(=O)Nc1ccc(OCC(O)CNC(C)C)cc1 (configuration not stated)

>  <MEASURED TARGET>
Felis catus

>  <CLASS ASSIGNMENT>
not met

$$$$
>  <COMPOUND>
CNC(=O)Nc1ccc(OCC(O)CNC(C)C)c(I)c1 (configuration not stated)

>  <MEASURED TARGET>
Felis catus

>  <CLASS ASSIGNMENT>
not met

$$$$
>  <COMPOUND>
C=CCNC(=O)Nc1ccc(OCC(O)CNC(C)C)c(Cl)c1 (configuration not stated)

>  <MEASURED TARGET>
Felis catus

>  <CLASS ASSIGNMENT>
not met

$$$$
>  <COMPOUND>
CCCCCCCCNC(=O)Nc1ccc(OCC(O)CNC(C)C)c(C)c1 (configuration not stated)

>  <MEASURED TARGET>
Felis catus

>  <CLASS ASSIGNMENT>
not met

$$$$
>  <COMPOUND>
CCCCNC(=O)Nc1ccc(OCC(O)CNC(C)(C)C)cc1 (configuration not stated)

>  <MEASURED TARGET>
Felis catus

>  <CLASS ASSIGNMENT>
met

$$$$
>  <COMPOUND>
C=CCc1cc(NC(=O)NCC)ccc1OCC(O)CNC1CC1 (configuration not stated)

>  <MEASURED TARGET>
Felis catus

>  <CLASS ASSIGNMENT>
not met

$$$$
>  <COMPOUND>
CCCCNC(=O)Nc1ccc(OCC(O)CNC(C)(C)C)c(Cl)c1 (configuration not stated)

>  <MEASURED TARGET>
Felis catus

>  <CLASS ASSIGNMENT>
met

$$$$
>  <COMPOUND>
CCCNC(=O)Nc1ccc(OCC(O)CNC(C)C)cc1 (configuration not stated)

>  <MEASURED TARGET>
Felis catus

>  <CLASS ASSIGNMENT>
not met

$$$$
>  <COMPOUND>
CCCCCCNC(=O)Nc1ccc(OCC(O)CNC(C)(C)C)c(C)c1 (configuration not stated)

>  <MEASURED TARGET>
Felis catus

>  <CLASS ASSIGNMENT>
met

$$$$

----------
Test system: Felis catus
Test: In vivo inhibition of beta-2 adrenergic receptor in cat assessed as inhibition of isoproterenol-induced vasodepressor response at ED50 administered as 30 mins of infusion measured at 30 mins relative to control
Format: functional
Classify as follows. Reported inhibition (INH) greater than or equal to 50%: label 1. Reported inhibition (INH) below: label 0.

>  <COMPOUND>
CCCCCCNC(=O)Nc1ccc(OCC(O)CNC(C)(C)C)cc1 (configuration not stated)

>  <CLASS ASSIGNMENT>
label 0

$$$$
>  <COMPOUND>
CCNC(=O)Nc1ccc(OCC(O)CNC(C)C)c(O)c1 (configuration not stated)

>  <CLASS ASSIGNMENT>
label 0

$$$$
>  <COMPOUND>
CCCCNC(=O)Nc1ccc(OCC(O)CNC(C)C)c(C)c1 (configuration not stated)

>  <CLASS ASSIGNMENT>
label 0

$$$$
>  <COMPOUND>
CNC(=O)Nc1ccc(OCC(O)CNC(C)(C)C)c(Cl)c1 (configuration not stated)

>  <CLASS ASSIGNMENT>
label 1

$$$$
>  <COMPOUND>
CCCNC(=O)Nc1ccc(OCC(O)CNC(C)C)c(I)c1 (configuration not stated)

>  <CLASS ASSIGNMENT>
label 1

$$$$
>  <COMPOUND>
CCNC(=O)Nc1ccc(OCC(O)CNC(C)C)c(SC)c1 (configuration not stated)

>  <CLASS ASSIGNMENT>
label 0

$$$$
